- System: M14
- assay details: NCI tumour cell line growth inhibition, 48 h
Activity calls are given as the source filed them. Cut-off read from the data, not from the text of the source: active = GI50 up to about 1.1 µM and inactive = higher.
reported endpoint: GI50

Use these answered entries as a reference point.
- compound: "O=C1C(=Cc2c(O)cc(O)cc2O)C(=O)c2ccccc21"
  reported endpoint: "GI50"
  reading: "> 43.3 µM (inactive)"
- compound: "CCCOc1nc(N)c2cnn(C3CCCCO3)c2n1 (stereo unspecified)"
  reported endpoint: "GI50"
  reading: "> 100 µM (inactive)"
- compound: "C=C(C)C(=O)N1c2ccc(OC)cc2CC1C(=O)OCC (stereo unspecified)"
  reported endpoint: "GI50"
  reading: "> 100 µM (inactive)"
- compound: "N#C/C(=C\\c1cc(O)c(O)c(O)c1)C(N)=O"
  reported endpoint: "GI50"
  reading: "> 90.2 µM (inactive)"

input: Record request: GI50 value, item CO[C@H](c1ccccc1)[C@H](O)[C@](O)(c1ccccc1)P(=O)(OC)OC
output: > 100 µM (inactive)

input: Record request: GI50 value, item C/C(=N\c1ccc(Cl)cc1)c1ccncc1
output: > 100 µM (inactive)
